Target: Gox0313 (Gluconobacter oxydans, UniProt Q5FU50)
Sequence (Q5FU50 1-343): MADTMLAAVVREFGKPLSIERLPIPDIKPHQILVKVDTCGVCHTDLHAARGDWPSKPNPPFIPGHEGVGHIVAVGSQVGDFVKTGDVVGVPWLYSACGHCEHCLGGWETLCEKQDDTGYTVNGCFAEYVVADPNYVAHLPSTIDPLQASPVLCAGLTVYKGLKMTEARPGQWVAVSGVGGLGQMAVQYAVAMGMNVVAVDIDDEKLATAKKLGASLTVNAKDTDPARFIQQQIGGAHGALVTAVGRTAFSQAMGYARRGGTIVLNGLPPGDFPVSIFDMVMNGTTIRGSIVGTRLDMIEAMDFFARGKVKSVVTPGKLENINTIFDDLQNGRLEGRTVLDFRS
Assay: Enzyme activity assay (rate of NAD(P)H decrease at 340 nm), Gox0313
Assay type: biochemical
Details: Tab. 6, Gox0313; substrate reduction, cofactor NADH; 10 mM substrate, pH 7.0, 30 °C
Classify as follows. Reported Specific Activity greater than or equal to 9 U/mg: met. Reported Specific Activity below: not met.

# compound, assayed_target, label_class
records = [
    ("CC(=O)C(=O)c1ccccc1 [1-phenyl-1,2-propanedione]", "Gox0313 (Gluconobacter oxydans, UniProt Q5FU50)", "not met"),
    ("CCC(=O)C(=O)CC [3,4-hexanedione]", "Gox0313 (Gluconobacter oxydans, UniProt Q5FU50)", "met"),
    ("CCCCCCCC=O [octanal]", "Gox0313 (Gluconobacter oxydans, UniProt Q5FU50)", "not met"),
    ("O=CCCc1ccccc1 [hydrocinnamaldehyde]", "Gox0313 (Gluconobacter oxydans, UniProt Q5FU50)", "met"),
    ("O=CCO [glycolaldehyde]", "Gox0313 (Gluconobacter oxydans, UniProt Q5FU50)", "met"),
    ("CCCCCC=O [hexanal]", "Gox0313 (Gluconobacter oxydans, UniProt Q5FU50)", "not met"),
    ("CCCCCCCCCCCC=O [dodecanal]", "Gox0313 (Gluconobacter oxydans, UniProt Q5FU50)", "not met"),
    ("O=CC(=O)c1ccccc1 [phenylglyoxal]", "Gox0313 (Gluconobacter oxydans, UniProt Q5FU50)", "not met"),
    ("CC(=O)C(C)O (centres unmarked) [acetoin]", "Gox0313 (Gluconobacter oxydans, UniProt Q5FU50)", "met"),
    ("O=CC(O)CO (racemic) [DL-glyceraldehyde]", "Gox0313 (Gluconobacter oxydans, UniProt Q5FU50)", "not met"),
    ("CCC(=O)C(C)=O [2,3-pentanedione]", "Gox0313 (Gluconobacter oxydans, UniProt Q5FU50)", "met"),
    ("C=CC(C)=O [3-buten-2-one]", "Gox0313 (Gluconobacter oxydans, UniProt Q5FU50)", "not met"),
    ("O=Cc1ccccc1 [benzaldehyde]", "Gox0313 (Gluconobacter oxydans, UniProt Q5FU50)", "met"),
]
